# assay_notes: cn = amount concentration of the nth substance listed, in mol/dm3
# test_conditions: 298.15 K; 101.3 kPa; Liquid; Vibrating tube method; c1 = 1.5
measurement_name: mass density (kg/m3)

1. [Cl-].[K+] [potassium chloride] + O: 1059.97
2. [Cl-].[Na+] [sodium chloride] + O: 1053.3
3. CC(=O)[O-].[K+] [potassium ethanoate] + O: 1066.61
4. [Br-].[K+] [potassium bromide] + O: 1119.52

====

# assay_notes: cn = amount concentration of the nth substance listed, in mol/dm3
# test_conditions: 323.15 K; 101.3 kPa; Liquid; Vibrating tube method; c1 = 3
measurement_name: mass density (kg/m3)

1) [Br-].[K+] [potassium bromide] + O: 1222.18
2) [Cl-].[Na+] [sodium chloride] + O: 1095.35
3) [Cl-].[K+] [potassium chloride] + O: 1110.71
4) CC(=O)[O-].[K+] [potassium ethanoate] + O: 1113.05

====

# assay_notes: cn = amount concentration of the nth substance listed, in mol/dm3
# test_conditions: 323.15 K; 101.3 kPa; Liquid; Vibrating tube method; c1 = 3.5
Below is a list of entries, each paired with its recorded mass density value.
measurement_name: mass density (kg/m3)

1. [Br-].[K+] [potassium bromide] + O: 1260.51
2. CC(=O)[O-].[K+] [potassium ethanoate] + O: 1133.87
3. [Cl-].[Na+] [sodium chloride] + O: 1109.38
4. [Cl-].[K+] [potassium chloride] + O: 1131.02

====

Below is a list of entries, each paired with its recorded mass density value.
# assay_notes: cn = amount concentration of the nth substance listed, in mol/dm3
# test_conditions: 298.15 K; 101.3 kPa; Liquid; Vibrating tube method; c1 = 2.5
measurement_name: mass density (kg/m3)

1. CC(=O)[O-].[K+] [potassium ethanoate] + O: 1108.88
2. [Cl-].[Na+] [sodium chloride] + O: 1088.97
3. [Br-].[K+] [potassium bromide] + O: 1199.54
4. [Cl-].[K+] [potassium chloride] + O: 1104.2

====

# assay_notes: cn = amount concentration of the nth substance listed, in mol/dm3
# test_conditions: 298.15 K; 101.3 kPa; Liquid; Vibrating tube method; c1 = 3
Below is a list of entries, each paired with its recorded mass density value.
measurement_name: mass density (kg/m3)

1) [Cl-].[K+] [potassium chloride] + O: 1124.93
2) CC(=O)[O-].[K+] [potassium ethanoate] + O: 1127.48
3) [Cl-].[Na+] [sodium chloride] + O: 1110.22
4) [Br-].[K+] [potassium bromide] + O: 1239.34

====

Below is a list of entries, each paired with its recorded mass density value.
# assay_notes: cn = amount concentration of the nth substance listed, in mol/dm3
# test_conditions: 303.15 K; 101.3 kPa; Liquid; Vibrating tube method; c1 = 4
measurement_name: mass density (kg/m3)

1. [Cl-].[Na+] [sodium chloride] + O: 1146.3
2. CC(=O)[O-].[K+] [potassium ethanoate] + O: 1168.58
3. [Cl-].[K+] [potassium chloride] + O: 1166.67
4. [Br-].[K+] [potassium bromide] + O: 1320.56

====

# assay_notes: cn = amount concentration of the nth substance listed, in mol/dm3
# test_conditions: 303.15 K; 101.3 kPa; Liquid; Vibrating tube method; c1 = 3.5
Below is a list of entries, each paired with its recorded mass density value.
measurement_name: mass density (kg/m3)

1. [Cl-].[K+] [potassium chloride] + O: 1143.35
2. [Cl-].[Na+] [sodium chloride] + O: 1122.4
3. CC(=O)[O-].[K+] [potassium ethanoate] + O: 1146.49
4. [Br-].[K+] [potassium bromide] + O: 1276.29
